Target: BChE (Homo sapiens, UniProt P06276)
Sequence (P06276 29-602, species assumed): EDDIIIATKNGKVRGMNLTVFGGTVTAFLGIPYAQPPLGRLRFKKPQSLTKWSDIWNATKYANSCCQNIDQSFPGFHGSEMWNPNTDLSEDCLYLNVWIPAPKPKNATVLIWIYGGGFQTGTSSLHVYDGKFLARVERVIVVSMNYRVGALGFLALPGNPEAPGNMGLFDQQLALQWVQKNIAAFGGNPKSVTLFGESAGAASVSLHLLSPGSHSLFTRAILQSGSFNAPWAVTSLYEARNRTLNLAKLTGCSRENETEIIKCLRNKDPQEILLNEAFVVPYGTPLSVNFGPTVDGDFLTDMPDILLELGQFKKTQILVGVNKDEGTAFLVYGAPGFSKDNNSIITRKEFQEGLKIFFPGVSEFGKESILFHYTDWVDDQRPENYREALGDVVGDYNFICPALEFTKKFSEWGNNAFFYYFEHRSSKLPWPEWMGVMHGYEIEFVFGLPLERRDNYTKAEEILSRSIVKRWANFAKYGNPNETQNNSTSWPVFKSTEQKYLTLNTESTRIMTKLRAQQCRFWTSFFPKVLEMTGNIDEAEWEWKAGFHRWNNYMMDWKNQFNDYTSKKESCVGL
Experiment: BChE inhibition, modified Ellman method
Type: biochemical
Details: read-out: BChE % inhibition at 50 µM; 50 µM; mean ± S.E
Threshold rule: inhibition at 50 µM greater than or equal to 40% is Y; below that, N.

Compound | Category label
Cc1ccc(Nc2ncc(-c3ccc(F)cc3)cc2[N+](=O)[O-])cc1 [3d] | Y

Request: Is inhibition at 50 µM for O=[N+]([O-])c1cc(-c2ccc(Cl)cc2)cnc1Nc1cccc2ccccc12 [3i] at or above 40%?
Response: N

Request: Is inhibition at 50 µM for O=[N+]([O-])c1cc(-c2cccc3ccccc23)cnc1Nc1cccc2ccccc12 [3q] at or above 40%?
Response: Y

Request: Is inhibition at 50 µM for O=[N+]([O-])c1cc(-c2ccccc2)cnc1Nc1ccc(Cl)cc1 [3b] at or above 40%?
Response: N

Request: Is inhibition at 50 µM for COc1ccc(Nc2ncc(-c3ccccc3)cc2[N+](=O)[O-])cc1 [3a] at or above 40%?
Response: N

Request: Is inhibition at 50 µM for COc1ccc(Nc2ncc(-c3ccc(Cl)cc3)cc2[N+](=O)[O-])cc1 [3f] at or above 40%?
Response: N

* * *

Target: BChE (Homo sapiens)
Assay: BChE inhibition, modified Ellman method
Type: biochemical
Settings: read-out: BChE % inhibition at 50 µM; 50 µM; mean ± S.E
Method: Cholinesterase inhibitory activities of all analogs were evaluated spectrometrically using the modified Ellman method as previously reported. […] The absorbance of each well was measured at 415 nm using a microplate reader. IC50 and inhibition values were calculated with the software GraphPad Prism as the mean of three independent experiments and expressed as mean ± SEM[42],[43].
Reported inhibition at 50 µM values follow for various molecules
Number only, in %; omit the unit.

Request: Look up inhibition at 50 µM: O=[N+]([O-])c1cc(-c2ccc(Br)cc2)cnc1Nc1ccc(Cl)cc1
Response: 12.8

Request: Look up inhibition at 50 µM: Cc1ccccc1Nc1ncc(-c2ccc(Cl)cc2)cc1[N+](=O)[O-]
Response: 14.6

Request: Look up inhibition at 50 µM: Cc1ccc(Nc2ncc(-c3cccc4ccccc34)cc2[N+](=O)[O-])cc1
Response: 22.8

Request: Look up inhibition at 50 µM: COc1ccc(Nc2ncc(-c3ccc(Br)cc3)cc2[N+](=O)[O-])cc1
Response: 46.1

Request: Look up inhibition at 50 µM: O=[N+]([O-])c1cc(-c2cccc3ccccc23)cnc1Nc1ccc(Cl)cc1
Response: 11.7
